Examples of compounds with documented IC50 follow.
Target or test system: Vascular endothelial growth factor receptor 2 (Homo sapiens)
Sequence (P35968 whole entry): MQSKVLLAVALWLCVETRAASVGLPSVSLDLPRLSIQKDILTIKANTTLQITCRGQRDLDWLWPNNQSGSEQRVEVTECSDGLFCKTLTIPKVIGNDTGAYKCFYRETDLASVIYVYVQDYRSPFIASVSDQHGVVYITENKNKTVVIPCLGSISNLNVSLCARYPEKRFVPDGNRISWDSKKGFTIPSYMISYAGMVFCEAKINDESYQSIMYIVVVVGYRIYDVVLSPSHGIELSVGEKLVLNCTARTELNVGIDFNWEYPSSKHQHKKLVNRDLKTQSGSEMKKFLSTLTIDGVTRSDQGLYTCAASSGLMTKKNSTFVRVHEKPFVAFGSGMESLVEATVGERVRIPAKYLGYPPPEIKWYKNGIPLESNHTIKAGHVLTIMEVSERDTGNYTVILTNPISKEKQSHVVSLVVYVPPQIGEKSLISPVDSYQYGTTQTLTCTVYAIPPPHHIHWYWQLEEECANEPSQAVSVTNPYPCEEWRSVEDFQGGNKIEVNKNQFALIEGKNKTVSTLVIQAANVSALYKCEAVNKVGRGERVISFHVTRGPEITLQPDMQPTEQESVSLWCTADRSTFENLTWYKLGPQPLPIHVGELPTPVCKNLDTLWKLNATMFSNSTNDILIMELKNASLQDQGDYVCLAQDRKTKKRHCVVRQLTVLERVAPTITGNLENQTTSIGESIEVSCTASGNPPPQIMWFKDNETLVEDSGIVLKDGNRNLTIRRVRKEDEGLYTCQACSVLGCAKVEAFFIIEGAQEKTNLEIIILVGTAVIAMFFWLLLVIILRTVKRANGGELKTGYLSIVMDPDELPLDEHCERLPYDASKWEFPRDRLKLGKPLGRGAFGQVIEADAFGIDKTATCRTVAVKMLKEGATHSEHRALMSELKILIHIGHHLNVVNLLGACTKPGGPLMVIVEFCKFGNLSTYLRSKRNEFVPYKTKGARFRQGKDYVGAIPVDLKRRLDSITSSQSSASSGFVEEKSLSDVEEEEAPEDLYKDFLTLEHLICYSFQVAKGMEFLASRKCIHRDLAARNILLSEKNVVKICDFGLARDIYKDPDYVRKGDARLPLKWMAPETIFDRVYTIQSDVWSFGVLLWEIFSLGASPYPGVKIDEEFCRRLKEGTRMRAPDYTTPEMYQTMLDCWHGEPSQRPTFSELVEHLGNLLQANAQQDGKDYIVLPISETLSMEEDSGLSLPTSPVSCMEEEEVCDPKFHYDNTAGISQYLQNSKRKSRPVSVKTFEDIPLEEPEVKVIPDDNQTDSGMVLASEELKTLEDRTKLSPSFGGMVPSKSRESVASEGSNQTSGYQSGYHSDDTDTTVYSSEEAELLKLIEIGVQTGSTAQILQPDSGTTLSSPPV
Run description: Inhibition of VEGFR2 by cell-based assay
Format: functional

Cn1cnc(NCc2ccncc2)c1C(=O)Nc1ccc(Oc2ccccc2)cc1; > 10 µM
Cn1cnc(NCc2ccncc2)c1C(=O)Nc1ccc2cn[nH]c2c1; > 10 µM
COc1ccc(NC(=O)c2c(C)noc2NCc2ccncc2)cc1OC; > 10 µM
Cc1noc(NCc2ccncc2)c1C(=O)Nc1ccc(Cc2ccccc2)cc1; > 10 µM
Cn1ncc(NCc2ccncc2)c1C(=O)Nc1ccc(Cc2ccccc2)cc1; > 10 µM
Cn1cnc(NCc2cccnc2)c1C(=O)Nc1ccc(C(F)(F)F)cc1; > 10 µM
Cn1ncc(NCc2ccncc2)c1C(=O)Nc1cccc(Cl)c1; > 10 µM
Cn1cnc(NCc2cccnc2)c1C(=O)Nc1cccc(C(F)(F)F)c1; > 10 µM
Cn1ncc(NCc2cccnc2)c1C(=O)Nc1cccc(C(F)(F)F)c1; > 10 µM
Cc1noc(NCc2ccncc2)c1C(=O)Nc1ccc(Cl)cc1; > 10 µM

Form entry - test system: Vascular endothelial growth factor receptor 2 (Homo sapiens); read-out: IC50; compound: Cn1ncc(NCc2ccncc2)c1C(=O)Nc1ccc(-c2ccccc2)cc1
> 10 µM

Form entry - test system: Vascular endothelial growth factor receptor 2 (Homo sapiens); read-out: IC50; compound: Cn1ncc(NCc2cccnc2)c1C(=O)Nc1ccc(C(F)(F)F)cc1
> 10 µM
